Measured AC50 by item
- System: CCRF-CEM viability, CellTiter-Glo ATP luminescence, 8-48 h
- ASSAY_OVERVIEW: cytotoxicity in CCRF-CEM lymphoblastic leukemia cells – cell-based, CellTiter-Glo ATP luminescence, 8/24/48 h, dry powder, HRAS target identification, dose response (AID 720607)
- CONDITION_INFO: measured here: 24 h treatment
Results filed as inconclusive are left out.
Supply the numeric figure in nM, leaving out any unit text.

Reference set (2 entries):
>  <MOLECULE>
COC(=O)c1ccc([C@@H]2c3[nH]c4ccccc4c3C[C@@H](C(=O)OC)N2C(=O)CCl)cc1

>  <AC50, nM>
19.9

$$$$
>  <MOLECULE>
COc1ccc(N(C(=O)CCl)C(C(=O)NCCc2ccccc2)c2cccs2)cc1Cl (stereo not given)

>  <AC50, nM>
39

$$$$

So for C#CCCCC(=O)NCCOCCOCCOc1ccc(N(C(=O)CCl)C(C(=O)NCCc2ccccc2)c2cccs2)cc1Cl (stereo not given) , the logged AC50 turned out to be 588

molecule CC(C)(C)OC(=O)NCCOCCOCCOc1ccc(N(C(=O)CCl)C(C(=O)NCCc2ccccc2)c2cccs2)cc1Cl (stereo not given) , AC50 observed: 34.4

get_value(item= Cc1onc(C(=O)N2CCN(C(c3ccc(Cl)cc3)c3ccc(Cl)cc3)CC2)c1[N+](=O)[O-] , readout=AC50) returns 68.9

----------
Below is a list of entries, each paired with its recorded log10 AC50 value.
- Tested on: CCRF-CEM viability, CellTiter-Glo ATP luminescence, 8-48 h
- ASSAY_OVERVIEW: cytotoxicity in CCRF-CEM lymphoblastic leukemia cells – cell-based, CellTiter-Glo ATP luminescence, 8/24/48 h, dry powder, HRAS target identification, dose response (AID 720607)
- CONDITION_INFO: measured here: 8 h treatment
Results filed as inconclusive are left out.
All values: base-10 log of AC50 in nM.

As a guide, the following entries are already answered.
>  <COMPOUND>
CC(C)(C)OC(=O)NCCOCCOCCOc1ccc(N(C(=O)CCl)C(C(=O)NCCc2ccccc2)c2cccs2)cc1Cl (stereo not given)

>  <TESTED_TARGET>
CCRF-CEM viability, CellTiter-Glo ATP luminescence, 8-48 h

>  <RECORDED_NUMBER>
2.66

$$$$
>  <COMPOUND>
COC(=O)c1ccc([C@@H]2c3[nH]c4ccccc4c3C[C@@H](C(=O)OC)N2C(=O)CCl)cc1

>  <TESTED_TARGET>
CCRF-CEM viability, CellTiter-Glo ATP luminescence, 8-48 h

>  <RECORDED_NUMBER>
2.43

$$$$
>  <COMPOUND>
C#CCCCC(=O)NCCOCCOCCOc1ccc(N(C(=O)CCl)C(C(=O)NCCc2ccccc2)c2cccs2)cc1Cl (stereo not given)

>  <TESTED_TARGET>
CCRF-CEM viability, CellTiter-Glo ATP luminescence, 8-48 h

>  <RECORDED_NUMBER>
3.47

$$$$
>  <COMPOUND>
Cc1onc(C(=O)N2CCN(C(c3ccc(Cl)cc3)c3ccc(Cl)cc3)CC2)c1[N+](=O)[O-]

>  <TESTED_TARGET>
CCRF-CEM viability, CellTiter-Glo ATP luminescence, 8-48 h

>  <RECORDED_NUMBER>
2.74

$$$$

API: the following record is the query input.
// log10 AC50 value for COc1ccc(N(C(=O)CCl)C(C(=O)NCCc2ccccc2)c2cccs2)cc1Cl (stereo not given) : 2.51
